Recorded values, source a melting point compilation (Tetko et al.; mined from patent text by program, amines drawn as free bases though some values may be those of a salt).

OBSERVABLE: melting point

{"COMPOUND": "CC(=O)OCC1=C(C(=O)O)N2C(=O)C(NC(=O)Cn3ccnc3S(C)=O)C2SC1 (centres undefined)", "melting point": "220 °C"}
{"COMPOUND": "O=C1CN(Cc2n[nH]c(=O)[nH]2)[C@@H](c2ccccc2)[C@@H](COCc2cc(C(F)(F)F)cc(C(F)(F)F)c2)N1", "melting point": "138 to 140 °C"}
{"COMPOUND": "CC(=O)Nc1ccc(C2=NC(C)(C)C(c3ccncc3)C2)cc1 (centres undefined)", "melting point": "222 to 225 °C"}
{"COMPOUND": "Cc1cccc(-c2n[nH]cc2-c2ccc(F)c(-c3ccc(N4CCOCC4)cn3)c2)n1", "melting point": "88 to 90 °C"}
{"COMPOUND": "Cc1cc(-c2cc(C(F)(F)F)nn2-c2ccc(S(N)(=O)=O)c(Cl)c2)ccc1-c1cscn1", "melting point": "113 to 115 °C"}

What measured melting point goes with CCCc1ccc([C@H]2CC[C@H](O)CC2)cc1 ?
78.2 to 80 °C

Dear colleague, I am looking for the recorded melting point of the following compound: CC(=O)C1=CC(C)(C)C=CC1
27 to 30 °C

// melting point lookup, key: C#CCNC(=O)Oc1cccc2c1OC(C)(C)O2
107 to 109 °C

Reported melting point, compound CCOC(=O)Cc1ccccc1I : ____
40.5 to 41.5 °C

Dear colleague, I am looking for the recorded melting point of the following compound: O=[N+]([O-])c1ccc(Oc2ccccc2)c(Cl)c1NCc1ccc(Cl)cc1
75 to 76 °C

melting point lookup needed for O=C(O)CCCNC(=O)c1ccccc1NC(=O)c1cc([N+](=O)[O-])ccc1O , thanks.
239 to 241 °C

Name the reported melting point value associated with the compound COC(=O)c1cc(C(=O)N[C@@H](Cc2ccccc2)[C@H]2CN(C3(c4cccc(C(F)(F)F)c4)CC3)C(=O)O2)n2c1CN(S(C)(=O)=O)CC2
104 °C

Fill in: melting point of CC(C)(C)c1cc(-c2nc3n(c2SC#N)CCS3)cc(C(C)(C)C)c1O is ___
178 to 179 °C

If you can, please state the reported melting point value of N#Cc1ccc(ON=C2CCCC(C(=O)O)C2)cc1 (centres undefined) .
153 to 154 °C
